Biological target: T1, ZFP SBS#1063 (synthetic, UniProt P08047)
T1 chain: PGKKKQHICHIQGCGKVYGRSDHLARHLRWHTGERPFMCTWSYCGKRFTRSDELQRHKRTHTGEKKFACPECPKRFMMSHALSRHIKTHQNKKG
Experiment: EMSA
Conditions: tags: MBP fusion
propertyMeasured: Kd (nM)
Quick note: give the figure in nM, leave out the unit.

Problem: Please give the measured Kd for this binder: GTTGCGGGG (dsDNA) DNA 1: GTTGCGGGG DNA 2: CCCCGCAAC
Solution: 0.96
